System: 60 cancer cell lines (NCI 60 cancer cell line series)
Assay: NCI-DTP in vitro cancer screen, sulforhodamine B (SRB) growth inhibition, 48 hour exposure
Assay type: cell-based, human
Settings: Melanoma SK-MEL-28 CL10008
property.name: classification of cell line as Low(1), Medium(2), High(3) sensitivity to compound
# print the numeric value only

# example entries with known answers
O=C1c2c(O)ccc(O)c2C(=O)c2c(NCCNCCO)ccc(NCCNCCO)c21: 1
O=c1[nH]cc(F)c(=O)[nH]1: 2

Lab note: next compound to report on.
Prompt line: Could you share what classification of cell line as Low(1), Medium(2), High(3) sensitivity to compound was measured for CN(Cc1cnc2nc(N)nc(N)c2n1)c1ccc(C(=O)N[C@@H](CCC(=O)O)C(=O)O)cc1 [Methotrexate] , tested on 60 cancer cell lines (NCI 60 cancer cell line series)?
Response line: 1
